# System: 377384-186-R-J1-PDC complex spheroid viability
# TEST_SUMMARY: Anticancer human tumor 377384-186-R-J1-PDC patient-derived pancreatic carcinoma cell line growth inhibition [RAS]
# MEASUREMENT_CONDITIONS: second compound 0.0949 µM; first compound 10 µM; stronger effect = lower value
Entries annotated with measured viability, T/C
Answer format: numeric, % implied, no suffix.

Query block: Notebook entry, 377384-186-R-J1-PDC complex spheroid viability assay: viability, T/C of CC(Nc1ccc2c(c1)OCCn1cc(N3C(=O)OCC3C(F)F)nc1-2)C(N)=O (configuration not stated) + CCn1c(-c2cccnc2C(C)OC)c2c3cc(ccc31)N1CCOC(CC(NC(=O)C(C(C)C)N(C)C(=O)C3(F)CCN(C(=O)C#CC(C)(C)N(C)C)CC3)C(=O)N3CCCC(N3)C(=O)OCC(C)(C)C2)C1 = ?
Result block: 24.9

More entries:
Query block: Notebook entry, 377384-186-R-J1-PDC complex spheroid viability assay: viability, T/C of CC(=O)OC12COC1CC(O)C1(C)C(=O)C(O)C3=C(C)C(OC(=O)C(O)C(NC(=O)OC(C)(C)C)c4ccccc4)CC(O)(C(OC(=O)c4ccccc4)C21)C3(C)C (configuration not stated) + CCn1c(-c2cccnc2C(C)OC)c2c3cc(ccc31)N1CCOC(CC(NC(=O)C(C(C)C)N(C)C(=O)C3(F)CCN(C(=O)C#CC(C)(C)N(C)C)CC3)C(=O)N3CCCC(N3)C(=O)OCC(C)(C)C2)C1 = ?
Result block: 12.8

###

# Test system: 377384-186-R-J1-PDC complex spheroid viability
# TEST_SUMMARY: Anticancer human tumor 377384-186-R-J1-PDC cell line growth inhibition [RAS]; active = viability on the fitted dose curve at most 10% of control; inactive = the rest;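 note: spheroids exposed to compounds for seven days before readout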
# MEASUREMENT_CONDITIONS: second compound 0.00949 µM; first compound 1 µM
# Source text: RAS pathway inhibitors in Combinations in Complex Spheroids A high-throughput screen of multi-cell type tumor spheroids was designed to identify active combinations of RAS pathway inhibitors and targeted small molecules. Complex spheroids include a stromal component modeled by human endothelial cells (HUVEC) and fibroblasts modeled by human mesenchymal stem cells (MSCs). […] Compounds. […] If the clinical Cmax for an agent had not been determined, the highest concentration tested was 10 microM. […]
Just give me one of these, please: active, inactive

Query block: Kindly provide the recorded test outcome for the following molecule: C=CC(=O)N1CCN(c2nc(OCC3CCCN3C)nc3c(F)c(-c4nc(N)cc(C)c4C(F)(F)F)c(Cl)cc23)C(C)C1 (stereo not given) + CCn1c(-c2cc(N3CCN(C)CC3)cnc2C(C)OC)c2c3cc(ccc31)-c1csc(n1)CC(NC(=O)C1CC1C)C(=O)N1CCCC(N1)C(=O)OCC(C)(C)C2
Result block: active

Query block: Kindly provide the recorded test outcome for the following molecule: CC(Nc1ccc2c(c1)OCCn1cc(N3C(=O)OCC3C(F)F)nc1-2)C(N)=O (stereo not given) + CCn1c(-c2cccnc2C(C)OC)c2c3cc(ccc31)N1CCOC(CC(NC(=O)C(C(C)C)N(C)C(=O)C3(F)CCN(C(=O)C#CC(C)(C)N(C)C)CC3)C(=O)N3CCCC(N3)C(=O)OCC(C)(C)C2)C1
Result block: inactive

Query block: Kindly provide the recorded test outcome for the following molecule: CCC(CC)c1cc(NC2CCC(N)C2)n2nccc2n1 (stereo not given) + CCn1c(-c2cc(N3CCN(C)CC3)cnc2C(C)OC)c2c3cc(ccc31)-c1csc(n1)CC(NC(=O)C1CC1C)C(=O)N1CCCC(N1)C(=O)OCC(C)(C)C2
Result block: active

Query block: Kindly provide the recorded test outcome for the following molecule: Nc1ccn(C2OC(CO)C(O)C2(F)F)c(=O)n1 (stereo not given) + CCn1c(-c2cccnc2C(C)OC)c2c3cc(ccc31)N1CCOC(CC(NC(=O)C(C(C)C)N(C)C(=O)C3(F)CCN(C(=O)C#CC(C)(C)N(C)C)CC3)C(=O)N3CCCC(N3)C(=O)OCC(C)(C)C2)C1
Result block: active

Query block: Kindly provide the recorded test outcome for the following molecule: C=CC(=O)N1CCN(c2nc(OCC3CCCN3C)nc3c(F)c(-c4nc(N)cc(C)c4C(F)(F)F)c(Cl)cc23)C(C)C1 (stereo not given) + CCn1c(-c2cccnc2C(C)OC)c2c3cc(ccc31)N1CCOC(CC(NC(=O)C(C(C)C)N(C)C(=O)C3(F)CCN(C(=O)C#CC(C)(C)N(C)C)CC3)C(=O)N3CCCC(N3)C(=O)OCC(C)(C)C2)C1
Result block: inactive

More entries:
Query block: Kindly provide the recorded test outcome for the following molecule: O=C(c1ccc(F)c(F)c1Nc1ccc(I)cc1F)N1CC(O)([C@@H]2CCCCN2)C1 + CCn1c(-c2cccnc2C(C)OC)c2c3cc(ccc31)N1CCOC(CC(NC(=O)C(C(C)C)N(C)C(=O)C3(F)CCN(C(=O)C#CC(C)(C)N(C)C)CC3)C(=O)N3CCCC(N3)C(=O)OCC(C)(C)C2)C1
Result block: active

Query block: Kindly provide the recorded test outcome for the following molecule: CC(C)NCC(C(=O)N1CCN(c2ncnc3c2C(C)CC3O)CC1)c1ccc(Cl)cc1 (stereo not given) + CCn1c(-c2cc(N3CCN(C)CC3)cnc2C(C)OC)c2c3cc(ccc31)-c1csc(n1)CC(NC(=O)C1CC1C)C(=O)N1CCCC(N1)C(=O)OCC(C)(C)C2
Result block: active

Query block: Kindly provide the recorded test outcome for the following molecule: C[C@@H](NC(=O)c1ncnc(N)c1Cl)c1ncc(C(=O)Nc2cc(C(F)(F)F)c(Cl)cn2)s1 + CCn1c(-c2cc(N3CCN(C)CC3)cnc2C(C)OC)c2c3cc(ccc31)-c1csc(n1)CC(NC(=O)C1CC1C)C(=O)N1CCCC(N1)C(=O)OCC(C)(C)C2
Result block: inactive
